Test system: ICS
method.summary: qHTS profiling for inhibitors of Plasmodium falciparum proliferation (AID 504749); note: nearly all actives have a fitted effect of over 60% in size
assay.context: P. falciparum in erythrocytes, SYBR Green DNA, 72 h; series mostly up to 28.7 µM
Inconclusive results are not listed. The source made the active and inactive calls. Calls come from the whole dose curve; as a rule, active = well fitted inhibition curve with a large enough effect; inconclusive = small, poorly fitted or top-dose-only effect; inactive = flat fitted curve, though single readings scatter.
Respond with a class label; see active, inactive

Task: Test call, this compound: `CCN[C@]1(c2cccs2)CCCCC1=O`
Result: inactive

Task: Test call, this compound: `CCNC[C@H](O)c1cccc(O)c1`
Result: inactive

Task: Test call, this compound: `Clc1ccc([C@@H](OCCN2CCCCC2)c2ccccc2)cc1`
Result: active

Task: Test call, this compound: C[C@]12CC[C@H](OS(=O)(=O)O)CC1=CCC1C2CC[C@]2(C)C(=O)CC[C@@H]12 (stereo partly specified)
Result: inactive

Task: Test call, this compound: `CC1=C2[C@@H]3OC(=O)[C@@H](C)[C@@H]3CC[C@]2(C)C=CC1=O`
Result: inactive

Task: Test call, this compound: CCC(C)C1O[C@]2(C=CC1C)CC1CC(C/C=C(\C)[C@H](OC3CC(OC)C(O[C@H]4CC(OC)[C@@H](O)C(C)O4)C(C)O3)[C@@H](C)/C=C/C=C3\COC4C(O)C(C)=C[C@H](C(=O)O1)[C@@]34O)O2 (stereo partly specified)
Result: active

###

method.summary: qHTS Assay for Lipid Storage Modulators (AID 1519)
assay.context: Drosophila S3 cells, BODIPY lipid droplet/cell ratio, laser cytometry; measured here: lipid channel max response; cells loaded with oleic acid
Inconclusive results are not listed.
API: label(entry) gives true (1) if the entry's max response is strictly smaller than 10%; on equality or larger values it gives false (0).

Task: For this compound, is max response lower than 10%? NC(CO)Cc1ccccc1 (configuration not stated)
Result: false (0)

Task: For this compound, is max response lower than 10%? `c1cc(CN2CC3(CCNCC3)C2)ccn1`
Result: true (1)

Task: For this compound, is max response lower than 10%? `CN(C)[C@@H]1C(=O)C(C(N)=O)=C(O)[C@]2(O)C(=O)C3=C(O)c4c(O)cccc4[C@@](C)(O)[C@H]3[C@H](O)[C@@H]12`
Result: true (1)

Task: For this compound, is max response lower than 10%? `Cc1cc(OC(=O)N2CCCCC2)c(C(C)C)cc1[N+](C)(C)C`
Result: false (0)

Task: For this compound, is max response lower than 10%? CC1=CCCC2C1(C)CCC(C)C2(C)CC/C(C)=C/C[n+]1cn(C)c2c(N)ncnc21 (configuration not stated)
Result: false (0)

Task: For this compound, is max response lower than 10%? `C[C@@H]1O[C@H](O[C@@H]2CC[C@@]3(C=O)[C@H]4CC[C@@]5(C)[C@@H](C6=CC(=O)OC6)CC[C@@]5(O)[C@@H]4CC[C@]3(O)C2)C[C@H](O)[C@@H]1O`
Result: true (1)

Task: For this compound, is max response lower than 10%? CCC12C=CCN3CCC4(c5ccc(OC)cc5N(C)C4[C@@](O)(C(=O)OC)C1OC(C)=O)C32 (some centres not stated)
Result: false (0)

###

method.summary: Cytotoxicity counterscreen for inhibitors of SARS-CoV-2 cell entry (AID 1645845); note: nearly all actives have a fitted effect of over 50% in size
assay.context: cell viability (SARS-CoV-2 entry assay cells); series mostly up to 57.1 µM
Results filed as inconclusive are left out. Calls of active or inactive are those of the source. The call rests on the fitted dose curve.
Respond with a class label; see true (1) = active, false (0) = inactive

Task: Test call, this compound: CCCCC(C)(O)CC=C[C@H]1[C@H](O)CC(=O)[C@H]1CCCCCCC(=O)OC (some centres undefined)
Result: false (0)

Task: Test call, this compound: CCC(=O)OCC(=O)C1(OC(=O)CC)C(C)CC2C3CCC4=CC(=O)C=CC4(C)C3(F)C(O)CC21C (centres undefined)
Result: false (0)

Task: Test call, this compound: `CNC(=O)c1ccccc1Nc1nc(Nc2ccc3c(c2OC)CCC[C@@H](N2CCN(CCO)CC2)C3)ncc1Cl`
Result: false (0)

Task: Test call, this compound: `COc1cc(/C=C\C(=O)N2CCN(CC(=O)N3CCCC3)CC2)cc(OC)c1OC`
Result: false (0)

Task: Test call, this compound: `O=C(/C=C/N1C[C@H]2C[C@@H]1CN2c1ccccn1)c1ccccc1O`
Result: false (0)

Task: Test call, this compound: `Fc1cccc(Br)c1NC1=NCCN1`
Result: false (0)

Task: Test call, this compound: `CCN(CC)C(=O)Cc1csc(NS(=O)(=O)c2cccc(Cl)c2C)n1`
Result: false (0)

Task: Test call, this compound: CC(C)(CO)C(O)C(=O)NCCCC(=O)O (centres undefined)
Result: false (0)

Task: Test call, this compound: `COCC(=O)NC/C=C/c1ccc2ncnc(Nc3ccc(Oc4ccc(C)nc4)c(C)c3)c2c1`
Result: false (0)

Task: Test call, this compound: `NS(=O)(=O)NCCNc1nonc1C(=Nc1ccc(F)c(Br)c1)NO`
Result: false (0)

Task: Test call, this compound: `CC(=O)O[C@]1(C(C)=O)CC[C@H]2[C@@H]3C=C(C)C4=CC(=O)CC[C@@H]4[C@H]3CC[C@@]21C`
Result: false (0)

Task: Test call, this compound: `Cc1nc(NC(=O)N2CCC[C@H]2C(N)=O)sc1-c1ccnc(C(C)(C)C(F)(F)F)c1`
Result: false (0)

Task: Test call, this compound: `Cc1nn(C)c(COc2ccc(N3CCN(S(=O)(=O)N(C)C)CC3)cc2)c1-c1cccc2c(CCCOc3cccc4ccccc34)c(C(=O)O)n(CCN3CCOCC3)c12`
Result: false (0)

Task: Test call, this compound: CC1c2cccc(O)c2C(O)=C2C(=O)C3(O)C(O)=C(C(N)=O)C(=O)C(N(C)C)C3C(O)C21 (centres undefined)
Result: false (0)

Task: Test call, this compound: `O=C(CCl)Nc1cccc(NC2=NS(=O)(=O)c3ccccc32)c1`
Result: false (0)

Task: Test call, this compound: `Cc1nn(C)c2c1C(c1ccccc1F)=NCC(=O)N2C`
Result: false (0)

Task: Test call, this compound: `CN1C(=O)N(c2cc(Cl)cc(Cl)c2)C(=O)[C@]12CN(Cc1cc(C(=O)O)cs1)C[C@H]2c1ccc(C#N)cc1`
Result: false (0)

Task: Test call, this compound: `Nc1c(CC(=O)O)cccc1C(=O)c1ccccc1`
Result: false (0)

Task: Test call, this compound: `CC(=O)CCC1C(=O)N(c2ccccc2)N(c2ccccc2)C1=O`
Result: false (0)

Task: Test call, this compound: `C[C@H](NC(=O)/C(C#N)=C/c1cccc(Br)n1)c1ccccc1`
Result: true (1)

Task: Test call, this compound: `C[C@@H]1CCC[C@H](C)N1NC(=O)c1ccc(Cl)c(S(N)(=O)=O)c1`
Result: false (0)

Task: Test call, this compound: `CC1(N)CCN(c2cccnc2NC(=O)c2nc(-c3ncccc3C(F)(F)F)cnc2N)CC1`
Result: false (0)

Task: Test call, this compound: `CC1=NN(c2ccc(C(=O)O)cc2)C(=O)/C1=C/c1ccc(-c2cc(C)c(C)cc2[N+](=O)[O-])o1`
Result: false (0)

Task: Test call, this compound: `N=C1S/C(=C\c2ccc(-c3ccc4c(c3)C(=O)NC4=O)o2)C(=O)N1c1ccc(Br)cc1`
Result: false (0)

Task: Test call, this compound: CCC(=O)OC1(C(=O)CCl)C(C)CC2C3CC(F)C4=CC(=O)C=CC4(C)C3(F)C(O)CC21C (centres undefined)
Result: false (0)

Task: Test call, this compound: `CO[C@H]1C[C@@H]2CC[C@@H](C)[C@@](O)(O2)C(=O)C(=O)N2CCCC[C@H]2C(=O)O[C@H]([C@H](C)C[C@@H]2CC[C@@H](OCCO)[C@H](OC)C2)CC(=O)[C@H](C)/C=C(/C)[C@@H](O)[C@@H](OC)C(=O)[C@H](C)C[C@H](C)/C=C\C=CC=C1C`
Result: false (0)

Task: Test call, this compound: C#C[C@]1(O)CC[C@H]2[C@@H]3CCC4=CC(=O)CCC4[C@H]3CC[C@@]21CC (some centres undefined)
Result: false (0)

Task: Test call, this compound: `CCOc1ccc(-n2c([C@@H](C)N(Cc3cccnc3)C(=O)Cc3ccc(F)c(C(F)(F)F)c3)nc3ncccc3c2=O)cc1`
Result: false (0)

Task: Test call, this compound: `CN1CCN(C(=O)c2ccc(-c3ccc4c(C=O)c(O)ccc4c3)s2)CC1`
Result: false (0)
